// compounds with reported IC50 on Renin (Homo sapiens, UniProt P00797), multi-publication
Quick reminder: number only, in nM, skip the unit.

{"COMPOUND": "COCCN(C)C(=O)O[C@@H](Cc1ccccc1)C(=O)N[C@@H](Cc1cnc[nH]1)C(=O)N[C@@H](CC1CCCCC1)[C@@H](O)[C@@H](O)CC(C)C", "DATA_VALUE": 1.2}

Incoming: What value of measured IC50 is listed for `CC(C)C[C@H](O)[C@H](O)[C@H](CC1CCCCC1)NC(=O)[C@H](Cc1cscn1)NC(=O)[C@@H](Cc1ccccc1)CS(=O)(=O)N(C)CCc1ccccn1` ?
Outgoing: 0.25

Incoming: Further, for `CC(C)C[C@H](O)[C@H](O)[C@H](CC1CCCCC1)NC(=O)[C@H](Cc1c[nH]cn1)NC(=O)C(N)(Cc1ccccc1)Cc1ccccc1` ?
Outgoing: 25

Incoming: Try this compound next: `COc1ccccc1COCCCOc1ccc([C@H]2CCNC[C@@H]2OCc2ccc3c(c2)N(CCNS(N)(=O)=O)CCC3)cc1`
Outgoing: 0.06

Incoming: Now the compound COC(=O)CCN(C)C(=O)CC(Cc1cccc2ccccc12)C(=O)N[C@@H](Cc1c[nH]cn1)C(=O)N[C@@H](CC(C)C)C(O)C(=O)OC(C)C (mixture of isomers)
Outgoing: 17

Incoming: Then CC(C)C[C@H](NC(=O)[C@H](Cc1c[nH]cn1)NC(=O)C(CC(=O)N[C@@H](C)C(N)=O)Cc1cccc2ccccc12)C(O)C(=O)OC(C)C (stereo partly shown) ?
Outgoing: 440

Incoming: Query CC(C)CCC(=O)NCC(F)(F)[C@H](O)[C@H](CC1CCCCC1)NC(=O)C(CC(C)C)NC(=O)C(Cc1ccccc1)NC(=O)OC(C)(C)C (stereo partly shown) next
Outgoing: 20
